Measurement target: Recombinant human liver GK1 (GST-GK) (Homo sapiens)
Construct: made in house; host or cells: E. coli
Sequence (P35557 1-466 isoform P35557-2): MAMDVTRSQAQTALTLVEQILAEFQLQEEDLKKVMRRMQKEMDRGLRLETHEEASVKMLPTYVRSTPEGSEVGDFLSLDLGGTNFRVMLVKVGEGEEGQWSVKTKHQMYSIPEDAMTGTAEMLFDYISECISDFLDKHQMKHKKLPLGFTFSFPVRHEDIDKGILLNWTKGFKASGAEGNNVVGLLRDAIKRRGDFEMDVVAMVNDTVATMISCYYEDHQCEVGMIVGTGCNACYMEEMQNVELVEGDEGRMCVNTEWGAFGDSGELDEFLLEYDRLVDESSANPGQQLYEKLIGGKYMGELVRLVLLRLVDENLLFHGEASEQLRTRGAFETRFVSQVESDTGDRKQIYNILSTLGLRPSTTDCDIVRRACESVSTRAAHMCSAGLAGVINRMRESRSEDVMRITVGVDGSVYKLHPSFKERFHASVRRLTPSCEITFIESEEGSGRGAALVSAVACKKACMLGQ
Test protocol: Glucokinase in vitro assay (G6PDH-coupled, NADH at OD340)
Assay type: biochemical
Test conditions: 25° C., 5 mM D-glucose, 10% DMSO, GST-GK
Documented SC1.5 (concentration of activator that produced a 50% increase in the activity of GK) across a set of molecules
Measurement label: SC1.5 (concentration of activator that produced a 50% increase in the activity of GK) (µM)

structure_string=CCCNC(=O)CCn1ccc(NC(=O)[C@H](CC2CCCC2)c2ccc(S(C)(=O)=O)c(Cl)c2)n1 measurement_unit=µM value_observed=0.45
structure_string=O=C(Nc1ccn(CCCO)n1)[C@H](CC1CCCC1)c1cccc(C(F)(F)F)c1 measurement_unit=µM value_observed=0.779
structure_string=CS(=O)(=O)c1ccc([C@@H](CC2CCCC2)C(=O)Nc2cc[nH]n2)cc1Cl measurement_unit=µM value_observed=0.28

Data origin: patent US7935699B2
